Target: T1, Polyhistidine-tagged recombinant human UCH-L1 expressed from E. coli (human, UniProt P09936 1-223, limits assumed)
T1 construct: also called UCH-L1-His; not shown: polyhistidine tag
T1 sequence (P09936 whole entry): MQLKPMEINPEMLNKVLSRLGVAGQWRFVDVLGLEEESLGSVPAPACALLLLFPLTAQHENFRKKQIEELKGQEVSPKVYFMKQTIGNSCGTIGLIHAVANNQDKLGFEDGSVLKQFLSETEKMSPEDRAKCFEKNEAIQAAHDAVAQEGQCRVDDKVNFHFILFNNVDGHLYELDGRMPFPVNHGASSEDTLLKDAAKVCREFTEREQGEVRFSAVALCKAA
Experiment: BLI (Octet QKe); His-tagged UCH-L1 on anti-Penta-HIS sensor, antibody in solution

binder	koff, s⁻¹
UCH-L1-5 (antibody, V domains shown, also called mouse anti-UCH-L1 antibody UCH-L1-5; HRP-labeled anti-UCH-L1 detection antibody) VH: EVKLVESGGGSVQPGGSLSLSCAASGFTFTEYYMSWVRQFPGKALEWLAFIRNRAHGYTTEYSASVKGRFTISRDNSQSILYLQMNALRTEDSATYYCASSYGAPFAYWGQGTLVSVSA VL: DIVMTQAAPSVPVTPGESVSISCRSSKSLLHSDGNTYLYWFLQRPGQSPQLLIYRMSNLASGVPDRFSGSGSGTAFTLRISRVEAEDVGVYYCMQHLEYPLTFGAGTKLELK	1e-07
UCH-L1-4 (antibody, V domains shown, also called mouse anti-UCH-L1 antibody UCH-L1-4) VH: AVQLQQSGPELVKPGASVKISCKTSGDTFTEHFMNWVKQSHGESLEWIGIINPYTDGTNYDQKFKDKATLTVDKSSSTAYMELRSLTSEDSAVYYCARWGGDGEGYWGQGTTLTVSS VL: DIVMTQAAPSVSVTPGESVSISCRSSKSLLHSNGNTYLYWFLKRPGQSPQLLIYRMSNLASGVPDRVSGSGSGTAFTLRISRVEAEDVGIYYCMQHLEYPLTFGAGTKLELK	1.4e-05
